Molecular target: T1, human EpCAM (epithelial cell adhesion/activating molecule) (human, UniProt P16422 24-314)
T1 sequence: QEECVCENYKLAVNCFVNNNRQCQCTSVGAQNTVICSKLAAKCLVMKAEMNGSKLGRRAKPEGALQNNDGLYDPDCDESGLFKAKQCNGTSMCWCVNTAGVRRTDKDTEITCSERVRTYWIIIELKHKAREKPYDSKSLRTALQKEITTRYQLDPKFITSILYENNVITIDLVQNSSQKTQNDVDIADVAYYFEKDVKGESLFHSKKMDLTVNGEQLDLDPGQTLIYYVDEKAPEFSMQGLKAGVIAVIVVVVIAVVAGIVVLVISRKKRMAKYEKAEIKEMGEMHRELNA
Assay: cell-based or functional assay
Exercise: for every item that follows, state its recorded % Annexin V/PI-positive cells, NIH:OVCAR-3, 3.0 µg/ml mAb.
Numbers only, in %.

Solved entries:
# binder, observed_value
rows = [
    ("murine monoclonal antibody 4D2 (antibody, mouse IgG1, V domains shown, Mouse IgG1, kappa, from hybridoma; also called m338-4D2.20) VH: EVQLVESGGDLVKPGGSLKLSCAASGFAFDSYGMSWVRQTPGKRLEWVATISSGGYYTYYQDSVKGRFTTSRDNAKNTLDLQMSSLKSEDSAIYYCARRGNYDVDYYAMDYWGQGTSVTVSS VL: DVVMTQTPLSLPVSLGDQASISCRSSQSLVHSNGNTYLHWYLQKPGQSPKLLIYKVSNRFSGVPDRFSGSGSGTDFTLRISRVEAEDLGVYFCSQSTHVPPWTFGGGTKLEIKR", 51),
    ("murine monoclonal antibody 2D11 (antibody, mouse IgG1, V domains shown, Mouse IgG1, kappa, from hybridoma; also called m322-2D11.19) VH: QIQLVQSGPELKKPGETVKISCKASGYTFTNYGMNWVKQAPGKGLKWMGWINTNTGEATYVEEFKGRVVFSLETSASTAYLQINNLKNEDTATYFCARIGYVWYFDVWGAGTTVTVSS VL: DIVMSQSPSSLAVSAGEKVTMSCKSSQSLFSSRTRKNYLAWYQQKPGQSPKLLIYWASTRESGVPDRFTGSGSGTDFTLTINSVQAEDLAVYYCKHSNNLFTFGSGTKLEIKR", 55),
    ("murine monoclonal antibody 6D11 (antibody, mouse IgG1, V domains shown, Mouse IgG1, kappa, from hybridoma; also called m338-6D11.8) VH: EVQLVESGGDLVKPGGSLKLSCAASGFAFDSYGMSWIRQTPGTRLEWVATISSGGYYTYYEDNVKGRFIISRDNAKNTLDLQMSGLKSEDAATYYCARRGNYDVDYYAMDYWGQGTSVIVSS VL: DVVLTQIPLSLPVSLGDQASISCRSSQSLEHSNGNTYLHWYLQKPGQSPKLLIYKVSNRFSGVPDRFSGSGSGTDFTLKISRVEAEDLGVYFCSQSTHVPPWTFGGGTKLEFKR", 52),
]

Now consider the entry below.
Which measured % Annexin V/PI-positive cells, NIH:OVCAR-3, 3.0 µg/ml mAb value corresponds to murine monoclonal antibody 12H8 (antibody, mouse IgG2a, V domains shown, Mouse IgG2a, kappa, from hybridoma; also called m342-12H8.3; m12H8) VH: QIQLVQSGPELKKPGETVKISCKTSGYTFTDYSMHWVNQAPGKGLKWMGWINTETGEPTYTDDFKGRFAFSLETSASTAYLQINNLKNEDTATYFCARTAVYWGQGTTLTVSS VL: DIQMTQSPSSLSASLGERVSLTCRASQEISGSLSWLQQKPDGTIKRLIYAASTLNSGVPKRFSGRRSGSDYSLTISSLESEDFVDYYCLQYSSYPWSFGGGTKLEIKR ?
62
